test system: Monocotyledonous and dicotyledonous test plants; test: Herbicidal action before emergence of the plants (pre-emergence action), greenhouse pot test, 9-level rating after 4 weeks; assay type: in vivo; conditions: Abutilon, 250 g/ha, rated after 4 weeks, 9-level scale
measurementLabel: Pre-emergence action rating, Abutilon
Just the number, please, no unit after it.

>>> df
                                   compound                       measurementlabel  resultvalue
0  N#CCCOCc1nc(C(F)(F)F)ccc1C(=O)C1=C(O)C2CCC(C2)C1=O (stereo not drawn) [A849-B52]  Pre-emergence action rating, Abutilon            2
1  O=C(C1=C(O)C2CCC(C2)C1=O)c1ccc(C(F)(F)F)nc1COCC1CO1 (stereo not drawn) [A57-B52 (H5)]  Pre-emergence action rating, Abutilon            1
2  C#CCCOCc1nc(C(F)(F)F)ccc1C(=O)C1=C(O)C2CCC(C2)C1=O (stereo not drawn) [A836-B52]  Pre-emergence action rating, Abutilon            5

Simply: COCOCc1nc(C(F)(F)F)ccc1C(=O)C1=C(O)C2CCC(C2)C1=O (stereo not drawn) [A8-B52] , Monocotyledonous and dicotyledonous test plants, Pre-emergence action rating, Abutilon = 1

Simply: CC(C)(C)C(=O)OCc1nc(C(F)(F)F)ccc1C(=O)C1=C(O)C2CCC(C2)C1=O (stereo not drawn) [A839-B52] , Monocotyledonous and dicotyledonous test plants, Pre-emergence action rating, Abutilon = 1

* * *

test system: Monocotyledonous and dicotyledonous test plants; test: Herbicidal action before emergence of the plants (pre-emergence action), greenhouse pot test, 9-level rating after 4 weeks; assay type: in vivo; conditions: Abutilon, 250 g/ha, rated after 4 weeks, 9-level scale
Here the recorded Pre-emergence action rating, Abutilon is given for each entry.
Just the number, please, no unit after it.

>>> df
                                   molecule                              testedtarget  resultvalue
0  C=CCOCCOCc1nc(C(F)(F)F)ccc1C(=O)C1=C(O)C2CCC(C2)C1=O (stereo not shown)  Monocotyledonous and dicotyledonous test plants            2

The reported value for CCOCCOCc1nc(C(F)(F)F)ccc1C(=O)c1cnn(C)c1OS(C)(=O)=O in terms of Pre-emergence action rating, Abutilon is 2

The reported value for COCCOCc1nc(C(F)(F)F)ccc1C(=O)c1cnn(C)c1OS(C)(=O)=O in terms of Pre-emergence action rating, Abutilon is 1

The reported value for O=C(C1=C(O)C2CCC(C2)C1=O)c1ccc(C(F)(F)F)nc1COCCOCC(F)(F)F (stereo not shown) in terms of Pre-emergence action rating, Abutilon is 1

The reported value for COCc1nc(C(F)(F)F)ccc1C(=O)c1cnn(C)c1O in terms of Pre-emergence action rating, Abutilon is 2

The reported value for CCC(OC)OCCOCc1nc(C(F)(F)F)ccc1C(=O)C1=C(O)C2CCC(C2)C1=O (stereo not shown) in terms of Pre-emergence action rating, Abutilon is 1

The reported value for O=C(C1=C(O)C2CCC(C2)C1=O)c1ccc(C(F)(F)F)nc1COCC1CC1 (stereo not shown) in terms of Pre-emergence action rating, Abutilon is 3

The reported value for O=C(C1=C(O)C2CCC(C2)C1=O)c1ccc(C(F)(F)F)nc1COC1COCOC1 (stereo not shown) in terms of Pre-emergence action rating, Abutilon is 1

The reported value for COCCCOCc1nc(C(F)(F)F)ccc1C(=O)C1=C(O)C2CCC(C2)C1=O (stereo not shown) in terms of Pre-emergence action rating, Abutilon is 2

The reported value for COCCOCc1nc(C(F)(F)F)ccc1C(=O)C1=C(O)CC(C)CC1=O (stereo not shown) in terms of Pre-emergence action rating, Abutilon is 1

* * *

test system: Monocotyledonous and dicotyledonous test plants; assay: Herbicidal action before emergence of the plants (pre-emergence action), greenhouse pot test, 9-level rating after 4 weeks; format: in vivo; conditions: Echino., 250 g/ha, rated after 4 weeks, 9-level scale
measurementLabel: Pre-emergence action rating, Echino.
Just the number, please, no unit after it.

The reported value for CCC(OC)OCCOCc1nc(C(F)(F)F)ccc1C(=O)C1=C(O)C2CCC(C2)C1=O (stereo not shown) in terms of Pre-emergence action rating, Echino. is 2

The reported value for O=C(C1=C(O)C2CCC(C2)C1=O)c1ccc(C(F)(F)F)nc1COCCOCC(F)(F)F (stereo not shown) in terms of Pre-emergence action rating, Echino. is 1

The reported value for COCCOCc1nc(C(F)(F)F)ccc1C(=O)c1cnn(C)c1OS(=O)(=O)c1ccc(C)cc1 in terms of Pre-emergence action rating, Echino. is 1

The reported value for O=C(C1=C(O)C2CCC(C2)C1=O)c1ccc(C(F)(F)F)nc1COCCCO (stereo not shown) in terms of Pre-emergence action rating, Echino. is 2

The reported value for COCCOCc1nc(C(F)(F)F)ccc1C(=O)C1=C(O)CC(C)CC1=O (stereo not shown) in terms of Pre-emergence action rating, Echino. is 1

* * *

tested on: Monocotyledonous and dicotyledonous test plants; test: Post-emergence herbicidal action, greenhouse pot test, sprayed at the 2- to 3-leaf stage, 9-level rating after 2 to 3 weeks; format: in vivo; conditions: Ipopur., 250 g/ha, rated after 2 to 3 weeks, 9-level scale
Here the recorded Post-emergence action rating, Ipopur. is given for each entry.

In [3]: df
Out[3]:
                                   compound  resultvalue
0  CS(=O)(=O)OCCOCc1nc(C(F)(F)F)ccc1C(=O)C1=C(O)C2CCC(C2)C1=O (centres unmarked)            5

Simply: CCOCCOCc1nc(C(F)(F)F)ccc1C(=O)C1=C(O)C2CCC(C2)C1=O (centres unmarked) , Monocotyledonous and dicotyledonous test plants, Post-emergence action rating, Ipopur. = 2

* * *

test system: Monocotyledonous and dicotyledonous test plants; experiment: Herbicidal action before emergence of the plants (pre-emergence action), greenhouse pot test, 9-level rating after 4 weeks; format: in vivo; parameters: key: 9-level scale: 1 = complete damage, 9 = no effect; conditions: Abutilon, 250 g/ha, rated after 4 weeks, 9-level scale
measurementLabel: Pre-emergence action rating, Abutilon
Just the number, please, no unit after it.

>>> df
                                   compound                              testedtarget                       measurementlabel  resultvalue
0  COCCOCc1nc(C(F)(F)F)ccc1C(=O)c1cnn(C)c1O [A10-C5]  Monocotyledonous and dicotyledonous test plants  Pre-emergence action rating, Abutilon            1
1  CCN(CC)CC.O=C(C1=C(O)C2CCC(C2)C1=O)c1ccc(C(F)(F)F)nc1COC1CCCCO1 (stereo not shown) [A28-B52 (Et3NH+)]  Monocotyledonous and dicotyledonous test plants  Pre-emergence action rating, Abutilon            3
2  CC#CCOCc1nc(C(F)(F)F)ccc1C(=O)c1cnn(C)c1O [A20-C5]  Monocotyledonous and dicotyledonous test plants  Pre-emergence action rating, Abutilon            1
3  COCCOCc1nc(C(F)(F)F)ccc1C(=O)C1=C(O)CCC2(CC2)C1=O [A10-B17]  Monocotyledonous and dicotyledonous test plants  Pre-emergence action rating, Abutilon            4
4  O=C(C1=C(O)C2CCC(C2)C1=O)c1ccc(C(F)(F)F)nc1COCc1ccccc1 (stereo not shown) [A67-B52]  Monocotyledonous and dicotyledonous test plants  Pre-emergence action rating, Abutilon            3

The reported value for O=C(C1=C(O)C2CCC(C2)C1=O)c1ccc(C(F)(F)F)nc1COCCCl (stereo not shown) [A850-B52] in terms of Pre-emergence action rating, Abutilon is 1

The reported value for CCN(CC)CC.COCCOCc1nc(C(F)(F)F)ccc1C(=O)C1=C(O)C2CCC(C2)C1=O (stereo not shown) [A10-B52 (Et3NH+)] in terms of Pre-emergence action rating, Abutilon is 1

* * *

Here the recorded Post-emergence action rating, Ipopur. is given for each entry.
tested on: Monocotyledonous and dicotyledonous test plants; test: Post-emergence herbicidal action, greenhouse pot test, sprayed at the 2- to 3-leaf stage, 9-level rating after 2 to 3 weeks; type: in vivo; conditions: Ipopur., 250 g/ha, rated after 2 to 3 weeks, 9-level scale
Just the number, please, no unit after it.

                                   compound                       measurementlabel  resultvalue
0  CS(=O)(=O)CCOCc1nc(C(F)(F)F)ccc1C(=O)C1=C(O)C2CCC(C2)C1=O (stereo not drawn) [A819-B52]  Post-emergence action rating, Ipopur.            2
1  COCc1nc(C(F)(F)F)ccc1C(=O)c1c(C)nn(C)c1O [A1-C2]  Post-emergence action rating, Ipopur.            3
2  O=C(C1=C(O)C2CCC(C2)C1=O)c1ccc(C(F)(F)F)nc1COC1COC1 (stereo not drawn) [A24-B52]  Post-emergence action rating, Ipopur.            2

The reported value for C#CCCOCc1nc(C(F)(F)F)ccc1C(=O)C1=C(O)C2CCC(C2)C1=O (stereo not drawn) [A836-B52] in terms of Post-emergence action rating, Ipopur. is 3

The reported value for O=C(C1=C(O)C2CCC(C2)C1=O)c1ccc(C(F)(F)F)nc1COCCOCc1ccccc1 (stereo not drawn) [A855-B52] in terms of Post-emergence action rating, Ipopur. is 2

The reported value for CC(=O)OCc1nc(C(F)(F)F)ccc1C(=O)C1=C([O-])C2CCC(C2)C1=O.[K+] (stereo not drawn) [A833-B52 (K+)] in terms of Post-emergence action rating, Ipopur. is 3
